Form field: nHill (one value per entry).
method description: Hill coefficient for displacement of [35S]TBPS.
Format: functional
property name: nHill

- molecule: "C[C@]12CC[C@@H](O)C[C@@H]1CC[C@H]1[C@@H]3CCC4CCC(=O)C[C@@]43CC[C@@H]12 (some centres not stated)"
  meas value: 1.14
- molecule: "C[C@]12CC[C@@H](O)C[C@H]1CC[C@@H]1[C@@H]2CC[C@]23C(=O)C=CC[C@H]2CC[C@@H]13"
  meas value: 0.9
- molecule: "C[C@]12CC[C@@H](O)C[C@@H]1CC[C@H]1[C@@H]3CCC4C(=O)CCC[C@@]43CC[C@@H]12 (some centres not stated)"
  meas value: 0.84
- molecule: "C[C@]12CC[C@@H](O)C[C@@H]1CC[C@H]1[C@@H]3CCC4CC(=O)CC[C@@]43CC[C@@H]12 (some centres not stated)"
  meas value: 0.95
- molecule: "C[C@]12CC[C@@H](O)C[C@@H]1CC[C@H]1[C@@H]3CCC4C=CC(=O)C[C@@]43CC[C@@H]12 (some centres not stated)"
  meas value: 0.89
- molecule: "C[C@]12CC[C@@H](O)C[C@H]1CC[C@H]1[C@@H]3CCC4C(=O)CCC[C@@]43CC[C@@H]12 (some centres not stated)"
  meas value: 1.36
- molecule: "C[C@]12CC[C@@H](O)C[C@H]1CC[C@H]1[C@@H]3CCC4CCC(=O)C[C@@]43CC[C@@H]12 (some centres not stated)"
  meas value: 0.89
- molecule: "C[C@]12CC[C@@H](O)C[C@H]1CC[C@H]1C3CCC4C(=O)C=CC[C@@]43CC[C@@H]12 (single isomer, unassigned)"
  meas value: 1.15
- molecule: "C[C@]12CC[C@@H](O)C[C@H]1CC[C@H]1[C@@H]3CCC4C=CC(=O)C[C@@]43CC[C@@H]12 (some centres not stated)"
  meas value: 0.64
- molecule: "C[C@]12CC[C@@H](O)C[C@@H]1CC[C@H]1C3CCC4C(=O)C=CC[C@@]43CC[C@@H]12 (single isomer, unassigned)"
  meas value: 1.17
- molecule: "C[C@]12CC[C@@H](O)C[C@H]1CC[C@H]1[C@@H]3CCC4CC(=O)CC[C@@]43CC[C@@H]12 (some centres not stated)"
  meas value: 0.73
- molecule: "C[C@]12CC[C@@H](O)C[C@H]1CC[C@@H]1[C@@H]2CC[C@]23C=CC(=O)C[C@H]2CC[C@@H]13"
  meas value: 0.95

====

assayed system: GABA-A receptor; alpha-1/beta-2/gamma-2 (Rattus norvegicus) (UniProt P18508+P62813+P63138)
method description: In vitro current effect against rat GABA receptor alpha-1-beta-2-gamma-2 subunits expressed in Xenopus laevis oocytes at 10 uM (ratio +/- compound)
Type: cell-based
study conditions: Oocyte
property name: Ratio

- compound: "C[C@]12CC[C@@H](O)C[C@H]1CC[C@@H]1[C@@H]2CC[C@]23C=CC(=O)C[C@H]2CC[C@@H]13"
  property name: "Ratio"
  meas value: 4.44
- compound: "C[C@]12CC[C@@H](O)C[C@H]1CC[C@H]1[C@@H]3CCC4C(=O)CCC[C@@]43CC[C@@H]12 (stereo partly drawn)"
  property name: "Ratio"
  meas value: 1.51
- compound: "C[C@]12CC[C@@H](O)C[C@@H]1CC[C@H]1[C@@H]3CCC4C=CC(=O)C[C@@]43CC[C@@H]12 (stereo partly drawn)"
  property name: "Ratio"
  meas value: 16.6
- compound: "C[C@]12CC[C@@H](O)C[C@@H]1CC[C@@H]1[C@@H]2CC[C@]23C=CC(=O)C[C@H]2CC[C@@H]13"
  property name: "Ratio"
  meas value: 5.07
- compound: "C[C@]12CC[C@@H](O)C[C@@H]1CC[C@@H]1[C@@H]2CC[C@]23C(=O)C=CC[C@H]2CC[C@@H]13"
  property name: "Ratio"
  meas value: 9.45
- compound: "C[C@]12CC[C@@H](O)C[C@@H]1CC[C@H]1[C@@H]3CCC4CC(=O)CC[C@@]43CC[C@@H]12 (stereo partly drawn)"
  property name: "Ratio"
  meas value: 2.93
- compound: "C[C@]12CC[C@@H](O)C[C@H]1CC[C@@H]1[C@@H]2CC[C@]23C(=O)C=CC[C@H]2CC[C@@H]13"
  property name: "Ratio"
  meas value: 21.4
- compound: "CC(=O)[C@H]1CC[C@H]2[C@@H]3CC[C@H]4C[C@H](O)CC[C@]4(C)[C@H]3CC[C@]12C [BREXANOLONE]"
  property name: "Ratio"
  meas value: 9.65
- compound: "C[C@]12CC[C@@H](O)C[C@H]1CC[C@H]1[C@@H]3CCC4CC(=O)CC[C@@]43CC[C@@H]12 (stereo partly drawn)"
  property name: "Ratio"
  meas value: 2.65
- compound: "C[C@]12CC[C@@H](O)C[C@H]1CC[C@H]1[C@@H]3CCC4C=CC(=O)C[C@@]43CC[C@@H]12 (stereo partly drawn)"
  property name: "Ratio"
  meas value: 4.5
- compound: "C[C@]12CC[C@@H](O)C[C@H]1CC[C@@H]1[C@@H]2CC[C@]23C(=O)CCCC2CC[C@@H]13 (stereo partly drawn)"
  property name: "Ratio"
  meas value: 10.4
- compound: "C[C@]12CC[C@@H](O)C[C@@H]1CC[C@H]1[C@@H]3CCC4C(=O)CCC[C@@]43CC[C@@H]12 (stereo partly drawn)"
  property name: "Ratio"
  meas value: 2.28
- compound: "C[C@]12CC[C@@H](O)C[C@@H]1CC[C@H]1C3CCC4C(=O)C=CC[C@@]43CC[C@@H]12 (single isomer, unassigned)"
  property name: "Ratio"
  meas value: 9.07
- compound: "C[C@]12CC[C@@H](O)C[C@@H]1CC[C@@H]1[C@@H]2CC[C@]23C(=O)CCCC2CC[C@@H]13 (stereo partly drawn)"
  property name: "Ratio"
  meas value: 10.7
- compound: "C[C@]12CC[C@@H](O)C[C@@H]1CC[C@H]1[C@@H]3CCC4CCC(=O)C[C@@]43CC[C@@H]12 (stereo partly drawn)"
  property name: "Ratio"
  meas value: 6.49
- compound: "CC(=O)[C@H]1CC[C@H]2[C@@H]3CC[C@@H]4C[C@H](O)CC[C@]4(C)[C@H]3CC[C@]12C [ELTANOLONE]"
  property name: "Ratio"
  meas value: 9.77
- compound: "C[C@]12CC[C@@H](O)C[C@H]1CC[C@H]1[C@@H]3CCC4CCC(=O)C[C@@]43CC[C@@H]12 (stereo partly drawn)"
  property name: "Ratio"
  meas value: 3.17
- compound: "C[C@]12CC[C@@H](O)C[C@H]1CC[C@H]1C3CCC4C(=O)C=CC[C@@]43CC[C@@H]12 (single isomer, unassigned)"
  property name: "Ratio"
  meas value: 2.34

====

assayed system: GABA-A receptor; alpha-1/beta-2/gamma-2 (Rattus norvegicus) (UniProt P18508+P62813+P63138)
method description: In vitro current effect against rat GABA receptor alpha-1-beta-2-gamma-2 subunits expressed in Xenopus laevis oocytes at 0.1 uM (ratio +/- compound)
Assay type: cell-based
study conditions: Oocyte
Form field: Ratio (one value per entry).

- compound: "CC(=O)[C@H]1CC[C@H]2[C@@H]3CC[C@@H]4C[C@H](O)CC[C@]4(C)[C@H]3CC[C@]12C"
  Ratio: 1.2
- compound: "C[C@]12CC[C@@H](O)C[C@@H]1CC[C@H]1[C@@H]3CCC4CCC(=O)C[C@@]43CC[C@@H]12 (some centres undefined)"
  Ratio: 1.39
- compound: "CC(=O)[C@H]1CC[C@H]2[C@@H]3CC[C@H]4C[C@H](O)CC[C@]4(C)[C@H]3CC[C@]12C"
  Ratio: 1.26
- compound: "C[C@]12CC[C@@H](O)C[C@@H]1CC[C@@H]1[C@@H]2CC[C@]23C(=O)CCCC2CC[C@@H]13 (some centres undefined)"
  Ratio: 1.22

====

Form field: EC50 (one value per entry).
method description: Loss of righting reflex in Xenopus laevis tadpole.
Assay type: functional, frog
study conditions: Amphibia, read-out: ED50 (the source's name)

- molecule: "C[C@]12CC[C@@H](O)C[C@@H]1CC[C@H]1[C@@H]3CCC4C(=O)CCC[C@@]43CC[C@@H]12 (some centres undefined)"
  EC50 (nM): 1360
- molecule: "C[C@]12CC[C@@H](O)C[C@H]1CC[C@@H]1[C@@H]2CC[C@]23C(=O)CCCC2CC[C@@H]13 (some centres undefined)"
  EC50 (nM): 40
- molecule: "C[C@]12CC[C@@H](O)C[C@@H]1CC[C@H]1C3CCC4C(=O)C=CC[C@@]43CC[C@@H]12 (single isomer, unassigned)"
  EC50 (nM): 3380
- molecule: "CC(=O)[C@H]1CC[C@H]2[C@@H]3CC[C@@H]4C[C@H](O)CC[C@]4(C)[C@H]3CC[C@]12C [ELTANOLONE]"
  EC50 (nM): 63
- molecule: "C[C@]12CC[C@@H](O)C[C@@H]1CC[C@H]1[C@@H]3CCC4C=CC(=O)C[C@@]43CC[C@@H]12 (some centres undefined)"
  EC50 (nM): 1280
- molecule: "C[C@]12CC[C@@H](O)C[C@H]1CC[C@@H]1[C@@H]2CC[C@]23C=CC(=O)C[C@H]2CC[C@@H]13"
  EC50 (nM): 560
- molecule: "C[C@]12CC[C@@H](O)C[C@H]1CC[C@H]1[C@@H]3CCC4C(=O)CCC[C@@]43CC[C@@H]12 (some centres undefined)"
  EC50 (nM): 940
- molecule: "C[C@]12CC[C@@H](O)C[C@H]1CC[C@H]1[C@@H]3CCC4C=CC(=O)C[C@@]43CC[C@@H]12 (some centres undefined)"
  EC50 (nM): 1050
- molecule: "C[C@]12CC[C@@H](O)C[C@@H]1CC[C@@H]1[C@@H]2CC[C@]23C(=O)CCCC2CC[C@@H]13 (some centres undefined)"
  EC50 (nM): 320
- molecule: "CC(=O)[C@H]1CC[C@H]2[C@@H]3CC[C@H]4C[C@H](O)CC[C@]4(C)[C@H]3CC[C@]12C [BREXANOLONE]"
  EC50 (nM): 420
- molecule: "C[C@]12CC[C@@H](O)C[C@H]1CC[C@@H]1[C@@H]2CC[C@]23C(=O)C=CC[C@H]2CC[C@@H]13"
  EC50 (nM): 400
- molecule: "C[C@]12CC[C@@H](O)C[C@H]1CC[C@H]1[C@@H]3CCC4CC(=O)CC[C@@]43CC[C@@H]12 (some centres undefined)"
  EC50 (nM): 2470
- molecule: "C[C@]12CC[C@@H](O)C[C@@H]1CC[C@H]1[C@@H]3CCC4CC(=O)CC[C@@]43CC[C@@H]12 (some centres undefined)"
  EC50 (nM): 2370
- molecule: "C[C@]12CC[C@@H](O)C[C@@H]1CC[C@@H]1[C@@H]2CC[C@]23C(=O)C=CC[C@H]2CC[C@@H]13"
  EC50 (nM): 1200
